- System: ACHN
- method_description: NCI tumour cell line growth inhibition, 48 h
Active and inactive are the calls of the source. Rule as the data show it: active = GI50 up to about 1.1 µM and inactive = higher.
Listing: GI50 of selected compounds

Here is how some compounds turned out for GI50.
{"columns": ["compound", "target_system", "GI50"],
 "data": [
  ["O=C(O)CCC(NC(=O)c1ccc(Oc2nc3ccccc3nc2C(=O)O)cc1)C(=O)O (stereo not drawn)", "ACHN", "> 100 µM (inactive)"],
  ["COc1ccc(NC(=O)CC(=O)N2N=C(C)C(/N=N\\c3ccc(S(=O)(=O)c4ccc(/N=N/C5C(=O)N(C(=O)CC(=O)Nc6ccc(OC)cc6)N=C5C)cc4)cc3)C2=O)cc1 (stereo not drawn)", "ACHN", "> 100 µM (inactive)"],
  ["COC(=O)C(=O)C(C#N)c1cccc2ccccc12 (stereo not drawn)", "ACHN", "> 100 µM (inactive)"],
  ["N#C[C@H]1C(=O)C(c2nc3ccccc3[nH]2)S[C@H]1c1ccccc1 (stereo partly drawn)", "ACHN", "20 µM (inactive)"],
  ["N#C[C@H](C(=O)c1ccccc1F)c1nc2ccccc2s1", "ACHN", "49.1 µM (inactive)"]
]}

Lookup: // fetch ACHN GI50 for `O=C(NCCCN(CCCCN(CCCNC(=O)C(F)(F)F)Cc1ccc2ccccc2c1)Cc1ccc2ccccc2c1)C(F)(F)F`
Found: > 100 µM (inactive)

Lookup: // fetch ACHN GI50 for `O=C(O)Cn1c(=O)[nH]c(=O)c2[nH]cnc21`
Found: > 100 µM (inactive)

Lookup: // fetch ACHN GI50 for `S=C(S)N1CCN(c2cccc(Cl)c2)CC1`
Found: > 100 µM (inactive)

Entry source: ChEMBL document CHEMBL1201862
